# test: Plasma Stability Assay (LC-MS)
# Assay type: in vitro ADME
# appliedConditions: male, Sprague-Dawley, heparinized rat plasma, 37° C., Table 3, read-out: Plasma stability t½
Where a SMILES comes first, the peptide text is derived from it. Bridges are numbered along the chain shown (N, C = ends). [ ]: non-standard residue; d: D form. The star is where a group is joined. Cha = N[C@@H](CC1CCCCC1)C(=O)O; pGlu = O=C1CC[C@@H](C(=O)O)N1; NHPhenethyl = c1ccc(CCN*)cc1; Nle = CCCC[C@H](N)C(=O)O; Inp = O=C(O)C1CCNCC1
Tag: 1 if measured half-life at 5000 ng/mL is not below 50 min, 0 if it is.

CCCC[C@@H]1NC(=O)[C@@H]2CCCN2C(=O)CNC(=O)[C@H](CCCCN)NC(=O)[C@H](Cc2c[nH]cn2)NC(=O)[C@@H](NC(=O)[C@H](CC(C)C)NC(=O)[C@H](CCCNC(=N)N)NC(=O)[C@@H]2CCCN2C(=O)[C@H](CCCNC(=N)N)NC(=O)[C@@H]2CCC(=O)N2)CSSC[C@@H](C(=O)NCCc2ccccc2)NC1=O [Example 12] ([pGlu]RPRLCHKGP[Nle]C-NHPhenethyl; disulfide 6-12) ... 1
CCCC[C@@H]1NC(=O)[C@@H]2CCCN2C(=O)CNC(=O)[C@H](CCCCN)NC(=O)[C@H](Cc2cnc[nH]2)NC(=O)[C@@H](NC(=O)[C@H](CC(C)C)NC(=O)[C@H](CCCNC(=N)N)NC(=O)[C@@H]2CCCN2C(=O)[C@H](CCCNC(=N)N)NC(=O)[C@@H]2CCC(=O)N2)CSSC[C@@H](C(=O)N[C@@H](Cc2ccccc2)C(=O)O)NC1=O [Example 8] ([pGlu]RPRLCHKGP[Nle]CF-OH; disulfide 6-12) ... 1
N=C(N)NCCC[C@H](NC(=O)[C@@H]1CCCN1C(=O)[C@H](CCCNC(=N)N)NC(=O)[C@@H]1CCC(=O)N1)C(=O)N[C@@H](CC1CCCCC1)C(=O)N[C@H]1CSSC[C@@H](C(=O)N[C@@H](Cc2ccccc2)C(=O)O)NC(=O)[C@H](CC2CCCCC2)NC(=O)[C@@H]2CCCN2C(=O)CNC(=O)[C@H](CCCCN)NC(=O)[C@H](Cc2c[nH]cn2)NC1=O [Example 14, pE-R-P-R-Cha-C-H-K-G-P-Cha-C-F-OH] ([pGlu]RPR[Cha]CHKGP[Cha]CF-OH; disulfide 6-12) ... 1
CCCC[C@@H]1NC(=O)[C@@H]2CCCN2C(=O)CNC(=O)[C@H](CCCCN)NC(=O)[C@H](Cc2c[nH]cn2)NC(=O)[C@@H](NC(=O)[C@H](CC(C)C)NC(=O)[C@H](CCCNC(=N)N)NC(=O)[C@@H]2CCCN2C(=O)[C@H](CCCNC(=N)N)NC(=O)[C@@H](N)CCCNC(=N)N)CSSC[C@@H](C(=O)N[C@@H](Cc2ccccc2)C(=O)O)NC1=O [Example 17, H-R-R-P-R-L-C-H-K-G-P-Nle-C-F-OH] (H-RRPRLCHKGP[Nle]CF-OH; disulfide 6-12) ... 0

Incoming: Answer whether half-life at 5000 ng/mL of CCCC[C@@H]1NC(=O)[C@@H]2CCCN2C(=O)CNC(=O)[C@H](CCCCN)NC(=O)[C@H](Cc2c[nH]cn2)NC(=O)[C@@H](NC(=O)[C@H](CC(C)C)NC(=O)[C@H](CCCNC(=N)N)NC(=O)[C@@H]2CCCN2C(=O)[C@@H](N)CCCNC(=N)N)CSSC[C@@H](C(=O)N[C@@H](Cc2ccccc2)C(=O)O)NC1=O [Example 16, H-R-P-R-L-C-H-K-G-P-Nle-C-F-OH] (H-RPRLCHKGP[Nle]CF-OH; disulfide 5-11) is greater than or equal to 50 min.
Outgoing: 0

Incoming: Answer whether half-life at 5000 ng/mL of CCCC[C@@H]1NC(=O)[C@@H]2CCCN2C(=O)CNC(=O)[C@H](CCCCN)NC(=O)[C@H](Cc2c[nH]cn2)NC(=O)[C@@H](NC(=O)[C@H](CC(C)C)NC(=O)[C@H](CCCNC(=N)N)NC(=O)[C@@H]2CCCN2C(=O)[C@H](CCCNC(=N)N)NC(=O)C2CCNCC2)CSSC[C@@H](C(=O)N[C@@H](Cc2ccccc2)C(=O)O)NC1=O [Example 18, H-Isn-R-P-R-L-C-H-K-G-P-Nle-C-F-OH] (H-[Inp]RPRLCHKGP[Nle]CF-OH; disulfide 6-12) is greater than or equal to 50 min.
Outgoing: 1

###

# test: in vitro
# appliedConditions: rat, not told, Surrogate activity-based Plasma stability t½
Where a SMILES comes first, the peptide text is derived from it. Bridges are numbered along the chain shown (N, C = ends). [ ]: non-standard residue; d: D form. ξ: configuration not given here. pGlu = O=C1CC[C@@H](C(=O)O)N1; Nle = CCCC[C@H](N)C(=O)O; ξPip = O=C(O)C1CCCCN1
Record form. Attribute: half-life. Fill in for each entry.
One number for each entry, in h.

CCCC[C@@H]1NC(=O)[C@@H]2CCCN2C(=O)CNC(=O)[C@H](CCCCN)NC(=O)[C@H](Cc2cnc[nH]2)NC(=O)[C@@H](NC(=O)[C@H](CC(C)C)NC(=O)[C@H](CCCNC(=N)N)NC(=O)[C@@H]2CCCN2C(=O)[C@H](CCCNC(=N)N)NC(=O)[C@@H]2CCC(=O)N2)CSC[C@@H](C(=O)N[C@@H](Cc2ccccc2)C(=O)O)NC1=O ... 9.93

# context switch: different compound, same half-life
Incoming: What value of measured half-life is listed for CCCC[C@@H]1NC(=O)C2CCCCN2C(=O)CNC(=O)[C@H](CCCCN)NC(=O)[C@H](Cc2c[nH]cn2)NC(=O)[C@@H](NC(=O)[C@H](CC(C)C)NC(=O)[C@H](CCCNC(=N)N)NC(=O)[C@@H]2CCCN2C(=O)[C@H](CCCNC(=N)N)NC(=O)[C@@H]2CCC(=O)N2)CSSC[C@@H](C(=O)N[C@@H](Cc2ccccc2)C(=O)O)NC1=O (some centres unmarked) [Example 46] ([pGlu]RPRLCHKG[ξPip][Nle]CF-OH; disulfide 6-12) ?
Outgoing: 8.37

###

Record form. Attribute: half-life. Fill in for each entry.
# test: in vitro
# appliedConditions: rat, not told, Surrogate activity-based Plasma stability t½
Where a SMILES comes first, the peptide text is derived from it. Bridges are numbered along the chain shown (N, C = ends). [ ]: non-standard residue; d: D form. The star is where a group is joined. 3Pal = N[C@@H](Cc1cccnc1)C(=O)O; pGlu = O=C1CC[C@@H](C(=O)O)N1; NHPhenethyl = c1ccc(CCN*)cc1; Nle = CCCC[C@H](N)C(=O)O; Api = NC1(C(=O)O)CCNCC1
Give bare numbers, in h.

Previously resolved entries follow.
CCCC[C@@H]1NC(=O)[C@@H]2CCCN2C(=O)CNC(=O)[C@H](CCCCN)NC(=O)[C@H](Cc2c[nH]cn2)NC(=O)[C@@H](NC(=O)[C@H](CC(C)C)NC(=O)[C@H](CCCNC(=N)N)NC(=O)[C@H](CCCCN)NC(=O)[C@H](CCCNC(=N)N)NC(=O)[C@@H]2CCC(=O)N2)CSSC[C@@H](C(=O)N[C@@H](Cc2ccccc2)C(=O)O)NC1=O [Example 34, pE-R-K-R-L-C-H-K-G-P-Nle-C-F-OH] ([pGlu]RKRLCHKGP[Nle]CF-OH; disulfide 6-12) ... 8.42
CCCC[C@@H]1NC(=O)[C@@H]2CCCN2C(=O)CNC(=O)C2(CCNCC2)NC(=O)[C@H](Cc2c[nH]cn2)NC(=O)[C@@H](NC(=O)[C@H](CC(C)C)NC(=O)[C@H](CCCNC(=N)N)NC(=O)[C@@H]2CCCN2C(=O)[C@H](CCCNC(=N)N)NC(=O)[C@@H]2CCC(=O)N2)CSSC[C@@H](C(=O)N[C@@H](Cc2ccccc2)C(=O)O)NC1=O [Example 21, pE-R-P-R-L-C-H-(4-NH-Isn)-G-P-Nle-C-F-OH] ([pGlu]RPRLCH[Api]GP[Nle]CF-OH; disulfide 6-12) ... 10.7
CCCC[C@@H]1NC(=O)[C@@H]2CCCN2C(=O)CNC(=O)[C@H](CCCCN)NC(=O)[C@H](Cc2c[nH]cn2)NC(=O)[C@@H](NC(=O)[C@H](CC(C)C)NC(=O)[C@H](CCCNC(=N)N)NC(=O)[C@@H]2CCCN2C(=O)[C@@H](N)CCCNC(=N)N)CSSC[C@@H](C(=O)N[C@@H](Cc2ccccc2)C(=O)O)NC1=O [Example 16, H-R-P-R-L-C-H-K-G-P-Nle-C-F-OH] (H-RPRLCHKGP[Nle]CF-OH; disulfide 5-11) ... 0.223
CC(C)C[C@H](NC(=O)[C@H](CCCNC(=N)N)NC(=O)[C@@H]1CCCN1C(=O)[C@H](CCCNC(=N)N)NC(=O)[C@@H]1CCC(=O)N1)C(=O)N[C@H]1CSSC[C@@H](C(=O)N[C@@H](Cc2ccccc2)C(=O)O)NC(=O)[C@H](Cc2cccnc2)NC(=O)[C@@H]2CCCN2C(=O)CNC(=O)[C@H](CCCCN)NC(=O)[C@H](Cc2c[nH]cn2)NC1=O [Example 47, pE-R-P-R-L-C-H-K-G-P-(3-PyA)-C-F-OH] ([pGlu]RPRLCHKGP[3Pal]CF-OH; disulfide 6-12) ... 6.98
CCCC[C@@H]1NC(=O)[C@@H]2CCCN2C(=O)CNC(=O)[C@H](CCCCN)NC(=O)[C@H](Cc2cnc[nH]2)NC(=O)[C@@H](NC(=O)[C@H](CC(C)C)NC(=O)[C@H](CCCNC(=N)N)NC(=O)[C@@H]2CCCN2C(=O)[C@H](CCCNC(=N)N)NC(=O)[C@@H]2CCC(=O)N2)CSC/C(=N/OCC(=O)NCCNC(=O)COCCOCCNC(=O)CCC(NC(=O)CCCCCCCCCCCCCCCCC(=O)O)C(=O)O)CSC[C@@H](C(=O)N[C@@H](Cc2ccccc2)C(=O)O)NC1=O (stereo partly drawn) [Example 66] ... 9.93
CCCC[C@@H]1NC(=O)[C@@H]2CCCN2C(=O)CNC(=O)[C@H](CCCCN)NC(=O)[C@H](Cc2ccccc2)NC(=O)[C@@H](NC(=O)[C@H](CC(C)C)NC(=O)[C@H](CCCNC(=N)N)NC(=O)[C@@H]2CCCN2C(=O)[C@H](CCCNC(=N)N)NC(=O)[C@@H]2CCC(=O)N2)CSSC[C@@H](C(=O)N[C@@H](Cc2ccccc2)C(=O)O)NC1=O [Example 15, pE-R-P-R-L-C-F-K-G-P-Nle-C-F-OH] ([pGlu]RPRLCFKGP[Nle]CF-OH; disulfide 6-12) ... 3.01

# context switch: different compound, same half-life
Incoming: What value of measured half-life is listed for CCCC[C@@H]1NC(=O)[C@@H]2CCCN2C(=O)CNC(=O)[C@H](Cc2ccccc2)NC(=O)[C@H](Cc2c[nH]cn2)NC(=O)[C@@H](NC(=O)[C@H](CC(C)C)NC(=O)[C@H](CCCNC(=N)N)NC(=O)[C@@H]2CCCN2C(=O)[C@H](CCCNC(=N)N)NC(=O)[C@@H]2CCC(=O)N2)CCCCNC(=O)CC[C@@H](C(=O)NCCc2ccccc2)NC1=O [Example 2] ([pGlu]RPRLKHFGP[Nle]E-NHPhenethyl; lactam 6-12) ?
Outgoing: 0.452
